Sourced from patent US9115092B2

# target_entity: PI3Kα (wild-type), P110/P85α (Homo sapiens, UniProt P42336)
# Sequence (P42336 whole entry): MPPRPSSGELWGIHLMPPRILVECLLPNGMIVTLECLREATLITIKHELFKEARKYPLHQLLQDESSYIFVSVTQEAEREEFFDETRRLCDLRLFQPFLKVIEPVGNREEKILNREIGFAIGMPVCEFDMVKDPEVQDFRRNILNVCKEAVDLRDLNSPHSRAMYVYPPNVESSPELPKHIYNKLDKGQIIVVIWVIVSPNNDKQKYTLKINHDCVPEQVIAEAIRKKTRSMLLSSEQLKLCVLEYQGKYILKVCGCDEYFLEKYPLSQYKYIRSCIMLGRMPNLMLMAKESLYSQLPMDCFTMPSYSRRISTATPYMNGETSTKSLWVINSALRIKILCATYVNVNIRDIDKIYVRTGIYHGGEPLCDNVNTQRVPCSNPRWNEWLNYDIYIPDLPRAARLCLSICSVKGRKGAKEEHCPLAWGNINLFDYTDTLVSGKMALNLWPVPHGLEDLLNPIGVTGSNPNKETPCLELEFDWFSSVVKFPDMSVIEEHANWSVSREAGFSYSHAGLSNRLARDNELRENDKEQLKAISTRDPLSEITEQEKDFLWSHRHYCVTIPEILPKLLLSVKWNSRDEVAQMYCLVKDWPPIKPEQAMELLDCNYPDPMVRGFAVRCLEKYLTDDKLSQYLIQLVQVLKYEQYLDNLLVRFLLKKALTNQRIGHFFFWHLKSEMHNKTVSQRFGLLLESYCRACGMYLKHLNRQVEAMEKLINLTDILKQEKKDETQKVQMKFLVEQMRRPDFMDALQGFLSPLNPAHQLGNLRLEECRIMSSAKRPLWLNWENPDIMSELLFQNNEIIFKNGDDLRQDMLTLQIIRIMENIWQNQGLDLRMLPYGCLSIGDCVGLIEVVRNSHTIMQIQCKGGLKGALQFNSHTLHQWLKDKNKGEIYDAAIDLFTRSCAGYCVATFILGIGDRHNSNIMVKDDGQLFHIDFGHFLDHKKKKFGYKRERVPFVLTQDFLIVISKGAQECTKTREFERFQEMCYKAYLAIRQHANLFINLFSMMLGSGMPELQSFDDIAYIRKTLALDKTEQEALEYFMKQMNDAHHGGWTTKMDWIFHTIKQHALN
# Sequence (P27986 whole entry partner): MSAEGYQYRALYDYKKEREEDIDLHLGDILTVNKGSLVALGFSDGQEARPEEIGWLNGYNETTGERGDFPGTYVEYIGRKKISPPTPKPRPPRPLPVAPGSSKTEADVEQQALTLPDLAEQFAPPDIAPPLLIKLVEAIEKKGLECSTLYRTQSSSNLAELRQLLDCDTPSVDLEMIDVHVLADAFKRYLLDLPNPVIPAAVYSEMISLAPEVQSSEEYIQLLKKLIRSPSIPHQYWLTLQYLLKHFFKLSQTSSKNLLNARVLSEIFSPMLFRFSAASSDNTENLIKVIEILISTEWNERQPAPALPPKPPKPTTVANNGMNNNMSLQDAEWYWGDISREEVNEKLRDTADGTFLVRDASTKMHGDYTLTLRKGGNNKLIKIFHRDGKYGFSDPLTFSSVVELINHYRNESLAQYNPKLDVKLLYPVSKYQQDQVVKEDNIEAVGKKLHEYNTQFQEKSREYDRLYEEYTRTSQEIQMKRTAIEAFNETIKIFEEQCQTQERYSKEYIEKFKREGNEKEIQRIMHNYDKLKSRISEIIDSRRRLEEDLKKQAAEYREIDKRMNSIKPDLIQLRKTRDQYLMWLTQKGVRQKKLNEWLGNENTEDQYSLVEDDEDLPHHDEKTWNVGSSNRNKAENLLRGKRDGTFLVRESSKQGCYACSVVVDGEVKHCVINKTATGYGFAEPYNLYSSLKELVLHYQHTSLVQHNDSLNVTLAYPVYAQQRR
# assay_details: PI3 Kinase TR-FRET assay, PI3Kα (wild-type)
readout_label: IC50

{"compound": "CN(C)C(=O)c1ccc(NC(=O)Nc2ccc(-c3nc(N4CCOCC4)c4ccc(-c5ccncc5F)cc4n3)cc2)cc1", "result": "< 0.05 µM"}
{"compound": "CN(C)C(=O)c1ccc(NC(=O)Nc2ccc(-c3nc(N4CCOCC4)c4ccc(C(C)(C)O)cc4n3)cc2F)cc1", "result": "0.05 to 0.2 µM"}
{"compound": "CN(C)C1CCN(C(=O)c2ccc(NC(=O)Nc3ccc(-c4nc(N5CCOCC5)c5ccc(C(C)(C)O)cc5n4)cc3)cc2)C1 (stereo in doubt)", "result": "0.05 to 0.2 µM"}
{"compound": "CN(C)C(=O)c1ccc(NC(=O)Nc2ccc(-c3nc(N4CCOCC4)c4ccc(-c5cnc(N)nc5)cc4n3)cc2)cc1", "result": "< 0.05 µM"}
{"compound": "Cc1ccc(-c2ccc3c(N4CCOCC4)nc(-c4ccc(NC(=O)Nc5ccc(C(=O)N(C)C)cc5)cc4)nc3c2)o1", "result": "< 0.05 µM"}
{"compound": "Cc1ccc(-c2ccc3c(N4CCOCC4)nc(-c4ccc(NC(=O)Nc5ccc(C(=O)N6CCC(O)C6)cc5)cc4)nc3c2)o1 (stereo not shown)", "result": "< 0.05 µM"}
{"compound": "COc1ncc(-c2cnc3c(N4CCOCC4)nc(-c4ccc(NC(=O)Nc5ccc(C(=O)N(C)C)cc5F)cc4)nc3c2)cn1", "result": "< 0.05 µM"}
{"compound": "CN(C)[C@@H]1CCN(C(=O)c2ccc(NC(=O)Nc3ccc(-c4nc(N5CCOCC5)c5ncc(-c6cnn(C)c6)cc5n4)cc3)cc2)C1", "result": "< 0.05 µM"}
{"compound": "COc1ncc(-c2ccc3c(N4CCOCC4)nc(-c4ccc(NC(=O)Nc5ccc(C(=O)N(C)C)c(F)c5)cc4)nc3c2)cn1", "result": "< 0.05 µM"}
{"compound": "CN(C)C(=O)c1ccc(NC(=O)Nc2ccc(-c3nc(N4CCOCC4)c4ccc(-c5cccnc5F)cc4n3)cc2)c(F)c1", "result": "0.05 to 0.2 µM"}
{"compound": "CN(C)C(=O)c1ccc(NC(=O)Nc2ccc(-c3nc(N4CCOCC4)c4ccc(-c5cccc(S(C)(=O)=O)c5)cc4n3)cc2F)cn1", "result": "< 0.05 µM"}
{"compound": "CN(C)C(=O)c1ccc(NC(=O)Nc2ccc(-c3nc(N4CCOCC4)c4ccc(-c5ccco5)cc4n3)cc2)cc1 [Example 51]", "result": "< 0.05 µM"}
{"compound": "CN(C)C(=O)c1ccc(NC(=O)Nc2ccc(-c3nc(N4CCOCC4)c4cc(F)c(-c5cnn(C)c5)cc4n3)cc2)cc1", "result": "< 0.05 µM"}

* * *

# target_entity: PI3 kinase isoform β (Homo sapiens)
# Sequence (P42338 whole entry, canonical isoform): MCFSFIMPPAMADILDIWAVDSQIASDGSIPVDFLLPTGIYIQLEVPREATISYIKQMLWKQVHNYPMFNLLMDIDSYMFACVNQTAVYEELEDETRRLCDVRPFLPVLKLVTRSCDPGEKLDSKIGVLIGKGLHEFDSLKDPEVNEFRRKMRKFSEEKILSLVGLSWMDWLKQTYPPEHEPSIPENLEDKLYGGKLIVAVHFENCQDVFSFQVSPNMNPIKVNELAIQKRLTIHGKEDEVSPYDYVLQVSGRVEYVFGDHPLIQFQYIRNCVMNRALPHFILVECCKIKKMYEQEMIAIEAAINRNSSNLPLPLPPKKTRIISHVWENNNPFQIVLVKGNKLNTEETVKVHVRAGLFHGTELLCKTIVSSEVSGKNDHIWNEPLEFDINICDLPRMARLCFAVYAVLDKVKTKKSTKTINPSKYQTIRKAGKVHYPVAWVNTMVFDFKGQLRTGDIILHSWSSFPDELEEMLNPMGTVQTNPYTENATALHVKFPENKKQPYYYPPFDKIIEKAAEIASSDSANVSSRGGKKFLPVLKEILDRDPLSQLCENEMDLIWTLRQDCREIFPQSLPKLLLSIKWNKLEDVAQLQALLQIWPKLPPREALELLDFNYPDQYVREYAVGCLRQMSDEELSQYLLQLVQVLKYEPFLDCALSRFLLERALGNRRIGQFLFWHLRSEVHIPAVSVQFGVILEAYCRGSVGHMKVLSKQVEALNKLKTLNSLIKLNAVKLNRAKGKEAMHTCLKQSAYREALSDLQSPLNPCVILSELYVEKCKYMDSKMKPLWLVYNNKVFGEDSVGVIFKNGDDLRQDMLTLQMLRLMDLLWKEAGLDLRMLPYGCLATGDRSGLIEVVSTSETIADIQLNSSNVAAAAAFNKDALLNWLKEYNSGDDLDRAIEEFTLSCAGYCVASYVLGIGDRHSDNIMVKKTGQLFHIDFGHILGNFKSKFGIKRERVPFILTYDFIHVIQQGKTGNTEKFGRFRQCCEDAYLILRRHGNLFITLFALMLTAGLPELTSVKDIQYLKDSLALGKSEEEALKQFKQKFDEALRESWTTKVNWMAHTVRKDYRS
# Sequence (P27986 whole entry partner, canonical isoform): as the sequence (P27986 whole entry partner) above
# assay_details: PI3 Kinase TR-FRET assay, isoform β
# Assay type: biochemical
# cond: read-out: inhibition of PI3 kinase isoform β, IC50
readout_label: IC50

{"compound": "CN(C)C(=O)c1ccc(NC(=O)Nc2ccc(-c3nc(N4CCOCC4)c4ncc(-c5cccc(S(C)(=O)=O)c5)cc4n3)cc2F)cc1 [Example 104]", "readout_label": "IC50", "result": "< 500 nM"}
{"compound": "CN(C)C(=O)c1ccc(NC(=O)Nc2ccc(-c3nc(N4CCOCC4)c4ccc(-c5cccnc5)cc4n3)cc2)c(F)c1 [Example 152]", "readout_label": "IC50", "result": "< 500 nM"}
{"compound": "CN(C)C(=O)c1ccc(NC(=O)Nc2ccc(-c3nc(N4CCOCC4)c4ccc(-c5cccnc5F)cc4n3)cc2)c(F)c1 [Example 146]", "readout_label": "IC50", "result": "< 500 nM"}
{"compound": "Cc1ccc(-c2ccc3c(N4CCOCC4)nc(-c4ccc(NC(=O)Nc5ccc(C(=O)N(C)C)cc5)cc4)nc3c2)o1 [Example 2]", "readout_label": "IC50", "result": "< 1000 nM"}
{"compound": "CN(C)C(=O)c1ccc(NC(=O)Nc2ccc(-c3nc(N4CCOCC4)c4ccc(-c5cncnc5)cc4n3)cc2)c(F)c1 [Example 133]", "readout_label": "IC50", "result": "< 500 nM"}
